Provide the reported Reversal of each item.
# System: Mus musculus
# test description: Ability to reverse electroconvulsive shock (ECS) induced amnesia in mice, at a dose of 10 mg/kg administered perorally
# Assay type: functional
# settings: route oral
Kindly provide the numeric value in % only, without the unit symbol.

Query string: Recorded Reversal for O=C1CCC2CCC(O)N12 (stereo not given) with Mus musculus, please?
Result string: 27

Query string: Hello, I am looking for reported Reversal with Mus musculus for CCOC(=O)CCSC1CCC(=O)N1 (stereo not given) . Could you help?
Result string: 66

Query string: Under Mus musculus: Reversal value of O=C(O)CSC1CCC(=O)N1 (stereo not given) ?
Result string: 21

Query string: Please state recorded Reversal (tested on Mus musculus) of O=C1CCC(/C=C/C(=O)OCc2ccccc2)N1 (stereo not given)
Result string: 31

Query string: Please provide the recorded Reversal for COC(=O)CCSC1CCC(=O)N1 (stereo not given) , tested on Mus musculus.
Result string: 25
